# maps each entry to its IC50
Target: human recombinant MGMT (O^6-methylguanine-DNA methyltransferase) (Homo sapiens, UniProt P16455)
Construct: recombinant
Sequence (P16455 1-207): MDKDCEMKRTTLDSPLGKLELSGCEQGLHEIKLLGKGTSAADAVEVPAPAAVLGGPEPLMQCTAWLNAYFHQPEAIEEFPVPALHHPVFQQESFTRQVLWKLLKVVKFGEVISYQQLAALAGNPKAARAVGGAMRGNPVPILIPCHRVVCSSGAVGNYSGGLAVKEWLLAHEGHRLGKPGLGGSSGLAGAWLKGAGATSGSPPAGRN
Test: [3H]-methylated-DNA MGMT inactivation assay
A complete answer gives the number followed by the unit.

| compound | IC50 |
| --- | --- |
| CCCOC(=O)n1cc2c(OCc3cc(Br)cs3)nc(N)nc2n1 [compound 411] | 2.82 nM |

Now consider a different compound.
Query: Identify measured IC50 corresponding to N#Cc1csc(COc2nc(N)nc3[nH]cnc23)c1 [compound 90]
Result: 3.02 nM

Values were extracted from paper PMC10458236.
